Sourced from PubChem BioAssay AID2060490

# Test system: 885512-296-R-J2-PDC complex spheroid viability
# PROTOCOL: Anticancer human tumor 885512-296-R-J2-PDC patient-derived breast carcinoma cell line growth inhibition [GQUAD]
# DETAILS: second compound 3.16 µM; first compound 3.16 µM; stronger effect = lower value
// reported viability, T/C per item
All answers are understood in %, so give the number only.

| COMPOUND | viability, T/C (%) |
| --- | --- |
| C#Cc1c(F)ccc2cc(O)cc(-c3ncc4c(N5CC6CCC(C5)N6)nc(OCC56CCCN5CC(F)C6)nc4c3F)c12 (stereo not drawn) + CN(C)c1ccc(Nc2c3ccc(NC(=O)CCN4CCCC4)cc3nc3cc(NC(=O)CCN4CCCC4)ccc23)cc1 | 86.1 |

Q: // fetch viability, T/C given entry Cc1cccc(N(C)C(=O)C2C(O)CCN2c2nc(C)cc(C(F)(F)F)c2C#N)c1 (stereo not drawn) + Cc1cnc(CNC(=O)c2c(=O)c3ccc(N4CCCN(C)CC4)nc3n3c2sc2ccccc23)cn1
Result: 28.5

Q: // fetch viability, T/C given entry CCCS(=O)(=O)Nc1ccc(F)c(C(=O)c2c[nH]c3ncc(-c4ccc(Cl)cc4)cc23)c1F + Cc1[nH]c2ccc(F)cc2c1-c1nc2c3cccnc3c3ncccc3c2[nH]1
Result: 2.26

###

# System: 885512-296-R-J2-PDC complex spheroid viability
# PROTOCOL: Anticancer human tumor 885512-296-R-J2-PDC cell line growth inhibition [GQUAD];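 further: spheroids exposed to the compounds for one week; percent of tumor spheroid viability relative to DMSO vehicle control wells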
# DETAILS: second compound 10 µM; first compound 1 µM; stronger effect = lower value
PARAMETER MEASURED: viability, T/C (%)
All answers are understood in %, so give the number only.

Some compounds with recorded viability, T/C:
| COMPOUND | viability, T/C (%) |
| --- | --- |
| C=CCn1c(=O)c2cnc(Nc3ccc(N4CCN(C)CC4)cc3)nc2n1-c1cccc(C(C)(C)O)n1 + Cc1cnc(CNC(=O)c2c(=O)c3ccc(N4CCCN(C)CC4)nc3n3c2sc2ccccc23)cn1 | 0.15 |
| CC(C)n1c(=O)n(C)c2cnc3cc(F)c(-c4ccc(OCCCN5CCCCC5)nc4)cc3c21 + Cc1cnc(CNC(=O)c2c(=O)c3ccc(N4CCCN(C)CC4)nc3n3c2sc2ccccc23)cn1 | 0.17 |
| O=c1[nH]cc(F)c(=O)[nH]1 + Cc1[nH]c2ccc(F)cc2c1-c1nc2c3cccnc3c3ncccc3c2[nH]1 | 1.6 |

Q: // fetch viability, T/C given entry Nc1ccn(C2OC(CO)C(O)C2(F)F)c(=O)n1 (stereo unspecified) + Cc1cnc(CNC(=O)c2c(=O)c3ccc(N4CCCN(C)CC4)nc3n3c2sc2ccccc23)cn1
Result: 0.11

Q: // fetch viability, T/C given entry COc1ncnc(C2CC2)c1-c1ncc2cnn(Cc3ccc(-c4nc(C(F)(F)F)cn4C(C)C)cc3)c2n1 + CN(C)c1ccc(Nc2c3ccc(NC(=O)CCN4CCCC4)cc3nc3cc(NC(=O)CCN4CCCC4)ccc23)cc1
Result: 15.3

Q: // fetch viability, T/C given entry Nc1ccn(C2OC(CO)C(O)C2(F)F)c(=O)n1 (stereo unspecified) + CN(C)c1ccc(Nc2c3ccc(NC(=O)CCN4CCCC4)cc3nc3cc(NC(=O)CCN4CCCC4)ccc23)cc1
Result: 1.7

Q: // fetch viability, T/C given entry COc1ncnc(C2CC2)c1-c1ncc2cnn(Cc3ccc(-c4nc(C(F)(F)F)cn4C(C)C)cc3)c2n1 + Cc1cnc(CNC(=O)c2c(=O)c3ccc(N4CCCN(C)CC4)nc3n3c2sc2ccccc23)cn1
Result: 0.18

Q: // fetch viability, T/C given entry CC1COCCN1c1cc(C2(O)CC3CCC(C2)O3)c2cnn(-c3ccn[nH]3)c2n1 (stereo unspecified) + Cc1[nH]c2ccc(F)cc2c1-c1nc2c3cccnc3c3ncccc3c2[nH]1
Result: 2.85
